test system: HL-60(TB) leukemia; assay: NCI tumour cell line growth inhibition, 48 h
*1 amine or outer side, *2 acyl side, *3 side chain or, on linkers, in order; H or OH if unused. Where a SMILES comes first, the peptide text is derived from it. Bridges are numbered along the chain shown (N, C = ends). Roman numbers before positions name the chains, in order. X23 = CCCCCCCCCCCCCCC(=O)NC(CCCCN[*:2])C(=O)CN1CCCC1C(=O)[*:1]
observable: TGI (µM)
Write it as a number; the unit µM goes unstated.

Query: Which TGI is reported with HL-60(TB) leukemia for this entry: CCCCCCCCCCCCCCC(=O)NC(CCCCNC(=O)C1CCCN1C(=O)C(CCCCN)NC(=O)C(CCCCN)NC(=O)C(CCCCN)NC(=O)C(CCCNC(=N)N)NC(=O)C(CCCCN)NC(=O)C(N)C(C)C)C(=O)CN1CCCC1C(=O)NCC(=O)NC(Cc1ccccc1)C(=O)N1CCCC1C(=O)NC(CO)C(=O)NC(Cc1ccc(O)cc1)C(=O)NC(CCCCN)C(=O)NC(CC(C)C)C(=O)NC(CCCNC(=N)N)C(=O)N1CCCC1C(=O)NCC(N)=O (centres undefined) (I: GFPSYKLRPG-NH2 / II: H-VKRKKKP; linker I:N-II:C via X23; configuration not given here) ?
Result: 94.8

Query: Give the reported TGI for COc1ccc2c(c1)CC[C@@H]1C2CC[C@]2(C)C(=O)N(CCN3CCCCC3)C(=O)CC12 (some centres undefined) (system: HL-60(TB) leukemia).
Result: 61.1

Query: Form entry - test system: HL-60(TB) leukemia; read-out: TGI; molecule: `CCOP(=O)(CCN1CCN(CCCCCOc2cc3c(cc2OC)C(=O)N2CCC[C@H]2C=N3)CC1)OCC`
Result: 8.39

Query: Give TGI (HL-60(TB) leukemia) of the following molecule: `Cc1nn2c(=O)n(-c3cccc(-n4nnc5c(-c6ccccc6)c(C)nn5c4=O)c3C)nnc2c1-c1ccccc1`
Result: 87.9

Query: Value wanted: TGI (HL-60(TB) leukemia) of entry COC1=CCC2=C(CCN(C(=O)C3CC3)C2Cc2ccc(OC)c(O)c2)C1 (centres undefined)
Result: 91.7

Query: GET /values?readout=TGI&system=HL-60(TB) leukemia&item= `COc1cc(-c2ccc(Nc3ccccc3C(=O)O)c(OC)c2)ccc1Nc1ccccc1C(=O)O`
Result: 65.8

Query: Request - read-out TGI | tested on HL-60(TB) leukemia | molecule `O=[N+]([O-])c1ccc(Oc2cccc(C(F)(F)F)c2)c([N+](=O)[O-])c1`
Result: 4.65

Query: Give HL-60(TB) leukemia TGI for `Cc1cc(N2CCN(C)CC2)nc(N(CCNc2ccnc3cc(Cl)ccc23)Cc2ccco2)n1`
Result: 5.97

Query: I'm curious: which TGI was measured for Nc1nc(Cl)cc(NCC2(CO)CC(c3ccccc3)C2)n1 (centres undefined) tested on HL-60(TB) leukemia?
Result: 56.9

Query: Form entry - test system: HL-60(TB) leukemia; read-out: TGI; molecule: `CN(CCNC(=O)c1cn(C)c2c1ccc1cc(Cl)ccc12)CCNC(=O)c1cn(C)c2c1ccc1cc(Cl)ccc12`
Result: 10.4

Query: Value wanted: TGI (HL-60(TB) leukemia) of entry `COc1ccccc1N(C(C)=O)C1=C(Cl)C(=O)c2ccccc2C1=O`
Result: 5.53

Query: Which TGI is reported with HL-60(TB) leukemia for this entry: `N#Cc1ccc(N2Cc3cc(Cl)ccc3OC3=C2C(=O)N(Cc2ccc(F)cc2)C3=O)cc1` ?
Result: 0.469

Query: Request body: readout TGI, system HL-60(TB) leukemia, query `C/C(=C\CCc1ccsc1)CC/C=C(\C)CCCN1CCN(CCO)CC1` . Return the value.
Result: 4.14

Query: Item CCCCCCCCCCCCNC(=O)[C@H]1CSC(c2cc(Br)cs2)N1 (some centres undefined) with HL-60(TB) leukemia - TGI?
Result: 2.49

Query: Item `O=Cc1c[nH]c2ccc(-c3csc4ccccc34)cc12` with HL-60(TB) leukemia - TGI?
Result: 8.38

Query: What measured TGI is associated with `O=[N+]([O-])c1ccc(/C=N/n2c(CCc3n[nH]c(=S)n3/N=C/c3ccc([N+](=O)[O-])o3)n[nH]c2=S)o1` on HL-60(TB) leukemia?
Result: 97.7

###

test system: SF-295 CNS; experiment: NCI tumour cell line growth inhibition, 48 h; in the data active = GI50 below about 0.43 µM; inactive = the rest
Answer with one of the outcomes Y (active), N (inactive)

Query: In this assay, the call recorded for COc1ccc(C2=NNC(c3cc(Cc4ccc(O)c(C5CC(c6ccc(OC)cc6)=NN5)c4)ccc3O)C2)cc1 (configuration not stated) was what?
Result: N

Query: Kindly provide the recorded test outcome for the following molecule: `Cc1ccn2c(-c3csc(Nc4cccc(O)c4)n3)c(C)nc2c1`
Result: N

Query: Can you look up the reported call for `Cc1ccc(-n2nnc3c(sc4ccccc43)c2=O)cc1` for me?
Result: N

Query: Write down the call the test reported for this molecule. Item: `O=Cc1c[nH]c2ccc(-c3csc4ccccc34)cc12`
Result: N

Query: Hello, I am checking results. What call was entered for `c1cc2ccc3cc2cc1CNCCOCCNCc1ccc2ccc(cc2c1)CNCCOCCNC3` ?
Result: N

Query: Called result for `Cc1cc(N2CCN(C)CC2)nc(N(CCNc2ccnc3cc(Cl)ccc23)Cc2ccco2)n1`
Result: N

Query: // param item: `O=C1NC(=O)C(N2CCc3ccccc32)=C1c1ccc(Cl)cc1` ; yields the recorded call
Result: N

Query: Please indicate how the test categorized COc1ccc(C2c3cc4c(c(OC)c3CC3OCC(=O)C32)OCO4)cc1OC (configuration not stated) .
Result: Y

Query: Per the records of this test, what outcome belongs to `O=S1CCN(Cc2ccc(-c3ccc4ncnc(Nc5ccc(OCc6ccccc6)c(F)c5)c4c3)o2)CC1` ?
Result: N

Query: Per the records of this test, what outcome belongs to CS(=O)/C(C#N)=C\C=C\c1cccc(Cl)c1 (configuration not stated) ?
Result: N

Query: Test call for this molecule, please: `CCN1CCN(CC(=O)Nc2nc3ccc(NCc4ccc(C)cc4)cc3s2)CC1`
Result: N

Query: Please indicate how the test categorized `N#Cc1ccc(N2Cc3cc(Cl)ccc3OC3=C2C(=O)N(Cc2ccc(F)cc2)C3=O)cc1` .
Result: N

###

For each of the molecules below, state its GI50.
tested on: HOP-92 NSCLC; assay: NCI tumour cell line growth inhibition, 48 h
*1 amine or outer side, *2 acyl side, *3 side chain or, on linkers, in order; H or OH if unused. Where a SMILES comes first, the peptide text is derived from it. Bridges are numbered along the chain shown (N, C = ends). Roman numbers before positions name the chains, in order. X23 = CCCCCCCCCCCCCCC(=O)NC(CCCCN[*:2])C(=O)CN1CCCC1C(=O)[*:1]

Query: Form field: reported GI50 of CCCCCCCCCCCCCCC(=O)NC(CCCCNC(=O)C1CCCN1C(=O)C(CCCCN)NC(=O)C(CCCCN)NC(=O)C(CCCCN)NC(=O)C(CCCNC(=N)N)NC(=O)C(CCCCN)NC(=O)C(N)C(C)C)C(=O)CN1CCCC1C(=O)NCC(=O)NC(Cc1ccccc1)C(=O)N1CCCC1C(=O)NC(CO)C(=O)NC(Cc1ccc(O)cc1)C(=O)NC(CCCCN)C(=O)NC(CC(C)C)C(=O)NC(CCCNC(=N)N)C(=O)N1CCCC1C(=O)NCC(N)=O (stereo not given) (I: GFPSYKLRPG-NH2 / II: H-VKRKKKP; linker I:N-II:C via X23; configuration not given here)
Result: 27 µM

Query: GI50 lookup needed for CCCCCCCCCCCCNC(=O)[C@H]1CSC(c2cc(Br)cs2)N1 (stereo not given in full) , thanks.
Result: 4.61 µM

Query: What does the data say about its GI50? Entry: `CCc1ccc(Oc2nccc(-c3c(-c4ccc(F)cc4)ncn3C3CCNCC3)n2)cc1`
Result: 1.17 µM

Query: Give the measured GI50 of `N#Cc1ccc(N2Cc3cc(Cl)ccc3OC3=C2C(=O)N(Cc2ccc(F)cc2)C3=O)cc1` .
Result: 0.58 µM

Query: I have this molecule here, `CCOC(=O)C1=C(C)NC(C)=C(C(=O)OCC)C1c1cc(Br)c(O)c(OC)c1` , and I need its recorded GI50.
Result: 1.82 µM

###

test system: NCI-H522 lung; assay: NCI tumour cell line growth inhibition, 48 h
observable: TGI (µM)
Hi! Could you send only the number? It should be in µM, unit omitted.

Query: Request - read-out TGI | tested on NCI-H522 lung | molecule COc1ccc(C2c3cc4c(c(OC)c3CC3OCC(=O)C32)OCO4)cc1OC (configuration not stated)
Result: 0.0181

Query: Please provide the recorded TGI for `O=C1C=CC(=O)c2c1cc1ccccc1c2O` , tested on NCI-H522 lung.
Result: 3.98

Query: Notebook: pull reported TGI for NCI-H522 lung, entry `Cc1cc(O)c2cc3c(O)c(O)ccc3cc2c1`
Result: 3.98

Query: Lab note: need TGI with NCI-H522 lung for entry `O=S(=O)(c1ccccc1)[C@@H]1[C@H]2C=C[C@](CS)(O2)[C@H]1S(=O)(=O)c1ccccc1` , please look it up.
Result: 31.7

Query: Param readout = TGI; param system = NCI-H522 lung; param query = `S=C(Nc1ccc(Cl)cc1)SC1CCCCC1` ; response: value
Result: 44.6

# credit: PubChem BioAssay (NCI)
